Exercise: for every item that follows, state its recorded apparent KD of MS2 coat protein.
Test system: MS2 coat protein
Assay name: apparent KD of MS2 coat protein; higher = weaker reporter binding
Condition: Eterna round: R107; input ligand: theophylline 20 uM

Task: Data request, read-out apparent KD of MS2 coat protein, for AAAUUAUCGGCGGCCGCCACUAGAGUUAGGCUUAUGUACUGGGUAACAUGAGGAUCACCCAUGUAUAGGACCGGGCCAUAAUAAA [Same State - Tryptophan B (Freestyle 4)]
Result: 88.9 nM

Task: Bench note: what apparent KD of MS2 coat protein did GCGGAAUAAUCGGCCGCCACUAUGAUAUAGGAAACUAUAACAUGAGGAUCACCCAUGUAUCCUCAUAGGACCGGGAUUAAAACGC [TrypB - CS] show?
Result: 121 nM

Task: I am curious: what apparent KD of MS2 coat protein value has been reported for UAUCCACAUGAGGAUCACCCAUGUAGGGAAGGAGCGGUGAUUUCACCAGGUAGGUCGCCUUGCUGAGGGUUGCCGGUGGAAUCGU [Exclusion - Arginine A (Freestyle 33)] ?
Result: 14.8 nM

Task: Which apparent KD of MS2 coat protein is reported for this sequence? `GGGUACAUCGCGGCCGCCACUCAUGUAAAUGCAUGAGGAUCACCCAUGCCGAUGGAGACAUCGGAGAGGACCGGGUGAUGUACCG`
Result: 68.7 nM

Task: Please look up its apparent KD of MS2 coat protein: AAACGAGAGACAGAUACCAGCGCAGGAACGGAGUAUGGUGACAUGAGGAUCACCCAUGUGCGCCCUUGGCAGCUGAGCCGUAUUG [theeternabot_exclusion_MS2_Theo_B_37]
Result: 43.3 nM

Task: Fill blank: measured apparent KD of MS2 coat protein of the sequence GGUGGCGUGACGGAUACCAGCCACCACCGAUAGACCACAUGAGGAUCACCCAUGUUGGGUGGCCCUUGGCAGCUGUCGUGCGGCG [#1 Same State - Theophylline B Attempt #17 (HarryS)] is ____.
Result: 409 nM
